- test-system: T1, Soluble CDCP1 extracellular domain (CDCP1-ECD) (SEQ ID NO:30) fused to Streptavidin Binding Protein (SBP) (human, UniProt Q9H5V8 30-663)
- T1 construct: also called SBP-CDCP1-ECD
- T1 sequence: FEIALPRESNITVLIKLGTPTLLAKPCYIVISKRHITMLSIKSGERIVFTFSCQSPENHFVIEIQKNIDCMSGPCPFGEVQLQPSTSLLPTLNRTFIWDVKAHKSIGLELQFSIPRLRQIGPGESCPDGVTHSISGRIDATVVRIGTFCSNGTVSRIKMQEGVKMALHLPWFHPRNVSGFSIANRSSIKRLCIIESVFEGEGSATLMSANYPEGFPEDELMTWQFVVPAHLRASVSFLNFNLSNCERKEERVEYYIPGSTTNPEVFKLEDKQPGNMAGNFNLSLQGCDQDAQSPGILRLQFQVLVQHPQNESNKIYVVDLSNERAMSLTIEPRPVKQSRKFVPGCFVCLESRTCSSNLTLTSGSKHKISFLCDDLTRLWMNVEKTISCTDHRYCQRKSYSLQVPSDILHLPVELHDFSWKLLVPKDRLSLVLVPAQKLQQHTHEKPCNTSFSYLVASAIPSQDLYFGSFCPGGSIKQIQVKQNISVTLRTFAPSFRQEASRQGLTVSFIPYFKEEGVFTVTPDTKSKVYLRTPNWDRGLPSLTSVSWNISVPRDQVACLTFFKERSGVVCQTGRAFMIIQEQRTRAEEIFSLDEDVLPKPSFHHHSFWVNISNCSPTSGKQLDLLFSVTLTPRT
- run-description: ELISA on captured SBP-CDCP1-ECD, ratio relative to chimeric CUB4 (chHC4)
assay-readout: relative binding ratio
Quick one: just the number, no unit, thanks!

- binder: "hHC4-04 / hLC4-d (antibody, V domains shown) VH: EVQLLESGGGLVQPGGSLRLSCAASGFTFNSYGMSWVRQAPGKGLEWVSTISSGGSYTYYPDSVKGRFTISRDNSKNTLYLQMNSLRAEDTAVYYCARHPDYDGVWFAYWGQGTLVTVSS VL: EIVMTQSPATLSVSPGERATLSCSVSSSVFYVHWYQQKPGQAPRLLIYDTSKLASGIPARFSGSGSGTEYTLTISSLQSEDFAVYYCQQWNSNPPTFGGGTKVEIK"
  relative binding ratio: 0.41

// moving on: another record for relative binding ratio
Inquiry: Entry under review: hHC4-04 / hLC4-c (antibody, V domains shown) VH: EVQLLESGGGLVQPGGSLRLSCAASGFTFNSYGMSWVRQAPGKGLEWVSTISSGGSYTYYPDSVKGRFTISRDNSKNTLYLQMNSLRAEDTAVYYCARHPDYDGVWFAYWGQGTLVTVSS VL: EIVMTQSPATLSVSPGERATLSCSVSSSVFYVHWYQQKPGQAPRLLIYDTSKLASGIPARFSGSGSGTEFTLTISSLQSEDFAVYYCQQWNSNPPTFGGGTKVEIK . Reported relative binding ratio?
Reply text: 0.33
